Test system: Z-138 cell line
Experiment: Z-138 Proliferation Assay (Cell Titer Glo, 5 days)
Format: cell-based
Conditions: Z-138 cells
pEC50: −log10 of the molar value.
REPORTED_ENDPOINT: pEC50

Find the measured pEC50: item CN(C[C@H](O)CN1CCc2ccccc2C1)C(=O)c1cc(NC2CCOCC2)ncn1 , target or system Z-138 cell line.
5.00 to 6.00

---

Test system: symmetric di-methyl arginine in Z-138 cells
Assay: Z-138 Methylation Assay (In Cell Western for symmetric di-methyl arginine and DNA content)
Assay type: cell-based
Details: read-out: ICW EC50
pEC50: −log10 of the molar value.
REPORTED_ENDPOINT: pEC50

I would be grateful if you could share the reported pEC50 for CN(C[C@H](O)CN1CCc2ccccc2C1)C(=O)c1cc(NC2CCOCC2)ncn1 .
6.00 to 7.00
